Catalogue of rel Vmax values
target: calf mucosal adenosine deaminase (EC 3.5.4.4) (Bos taurus); construct: calf mucosal adenosine deaminase; from tissue; host or cells: calf mucosa; assay: Deamination kinetics of compounds as substrates of adenosine deaminase; type: biochemical; details: relative; 37 = 1
Sequence (P56658 whole entry): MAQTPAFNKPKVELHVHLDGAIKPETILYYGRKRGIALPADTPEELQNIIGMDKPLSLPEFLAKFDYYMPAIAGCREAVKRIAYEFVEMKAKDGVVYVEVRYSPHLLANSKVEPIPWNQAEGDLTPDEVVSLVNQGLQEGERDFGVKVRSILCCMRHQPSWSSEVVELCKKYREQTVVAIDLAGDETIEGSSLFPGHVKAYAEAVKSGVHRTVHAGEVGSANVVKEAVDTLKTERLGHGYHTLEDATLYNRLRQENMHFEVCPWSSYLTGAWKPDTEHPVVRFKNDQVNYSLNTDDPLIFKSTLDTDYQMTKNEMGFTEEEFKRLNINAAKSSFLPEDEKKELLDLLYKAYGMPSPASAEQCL

Entry Nc1ncnc2c1ncn2[C@@H]1O[C@H](CO)[C@@H](O)[C@@H]1O [Compound 37, 9-(β-D-arabinofuranosyl)adenine, reference compound] , rel Vmax reported as 1

Quick note, rel Vmax for Nc1ncnc2c1ncn2COCCP(=O)(O)O[C@H]1[C@H](O)[C@H](n2cnc3c(N)ncnc32)O[C@@H]1CO landed at 7.64 × 10^-2

Record Nc1ncnc2c1ncn2COCCP(=O)(O)O , field rel Vmax: 1.49 × 10^-6

The value of rel Vmax measured for the molecule Nc1ncnc2c1ncn2COCCO [VI, Acyclic adenosine, reference compound] turned out to be 1.52 × 10^-2

---

test: Partition coefficient (lipophilicity), 1-pentanol / phosphate buffer; conditions: P = [Substrate]1-pentanol/[Substrate]H2O
# note: exactly 0.07 is not below, so it is Condition not met; use Condition met for log P strictly under it

Past entries and their recorded results:
>>> classification("Nc1ncnc2c1ncn2[C@@H]1O[C@H](CO)[C@@H](O)[C@@H]1O [Compound 37, 9-(β-D-arabinofuranosyl)adenine, reference compound]")
"Condition met"
>>> classification("Nc1ncnc2c1ncn2COCCO [VI, Acyclic adenosine, reference compound]")
"Condition not met"
>>> classification("Nc1ncnc2c1ncn2COCCP(=O)(O)O[C@H]1[C@H](O)[C@H](n2cnc3c(N)ncnc32)O[C@@H]1CO")
"Condition met"

Moving on to another compound below.
### Prompt Lab log: compare recorded log P with 0.07; is it strictly lower for COC(=O)C(C)NP(=O)(CCOCn1cnc2c(N)ncnc21)OC1C(CO)OC(n2cnc3c(N)ncnc32)C1O (centres unmarked) ?
### Response Condition not met
